Biological target: recombinant human ACC1 (rhACC1) (Homo sapiens (Human))
Assay: Transcreener ADP detection FP assay, direct inhibition of rhACC1
Conditions: Geomean IC50, n ≥ 2 unless * then n = 1; 50 μM ATP, 30 μM acetyl-CoA
Readout: pIC50
Here pIC50 is given on a logarithmic scale as minus log10 of the concentration in mol/L.

The following compounds have reported results that may help.
CNc1ccc2c(C)cc(C(=O)N3CCC4(CC3)CC(=O)c3nc(C5(C)CC5)sc3C4)cc2n1 :: 7.87
COc1nccc2ccc(C(=O)N3CCC4(CC3)CC(=O)c3nc(C(C)(C)C)sc3C4)cc12 :: 7.07

# input Query the reported pIC50 for recombinant human ACC1 (rhACC1) (Homo sapiens (Human)); item: `CC(C)(C)c1nc2c(s1)CC1(CCN(C(=O)c3ccc(Cl)c4[nH]ccc34)CC1)CC2=O`
# output 7.82

# input Similarly, `CCNc1ccc2c(C)cc(C(=O)N3CCC4(CC3)CC(=O)c3nc(C(C)(C)C)sc3C4)cc2n1` ?
# output 8.19

# input Similarly, `Cc1cc(C(=O)N2CCC3(CC2)CC(=O)c2nc(C(C)(C)C)sc2C3)cc2cccnc12` ?
# output 5.00

* * *

Measured IC50, listed per entry.
Target: recombinant human ACC1 (rhACC1) (Homo sapiens (Human))
Experiment: Transcreener ADP detection FP assay, direct inhibition of rhACC1
Details: Geomean IC50, n ≥ 2 unless * then n = 1; 50 μM ATP, 30 μM acetyl-CoA
Provide only the numeric value, understood in nM.

The following molecules have reported results that may help.
CC(C)Nc1ccc2ccc(C(=O)N3CCC4(CC3)CC(=O)c3nc(C(C)(C)C)sc3C4)cc2n1 [Example 30] :: 4.6
COc1cc(C(=O)N2CCC3(CC2)CC(=O)c2nc(C(C)(C)C)sc2C3)cc2[nH]ccc12 [Example 61] :: 4.4
Cc1cc(C(=O)N2CCC3(CC2)CC(=O)c2nc(C(C)(C)C)sc2C3)cc2c(Cl)c[nH]c12 [Example 42] :: 3.1

We next turn to a different molecule, shown below.
# input # query: IC50 of entry CNc1nccc2c(C)cc(C(=O)N3CCC4(CC3)CC(=O)c3nc(C(C)(C)C)sc3C4)cc12 [Example 24]
# output 3.1

* * *

Target: recombinant human ACC1 (rhACC1) (Homo sapiens (Human))
Assay: Transcreener ADP detection FP assay, direct inhibition of rhACC1
Conditions: Geomean IC50, n ≥ 2 unless * then n = 1; 50 μM ATP, 30 μM acetyl-CoA
pIC50: −log10 of the molar value.
Respond with 1 for pIC50 values of 8 and above, 0 for values below.

# input Could you tell me if the measured pIC50 of Cc1ccnc2c(C)cc(C(=O)N3CCC4(CC3)CC(=O)c3nc(C(C)(C)C)sc3C4)cc12 [Example 96] reaches 8 or more?
# output 0

# input Similarly, Cc1cc(C(=O)N2CCC3(CC2)CC(=O)c2nc(C(C)(C)C)sc2C3)cc2[nH]ccc12 [Example 62] ?
# output 1

# input Similarly, CCNc1cnc2c(C)cc(C(=O)N3CCC4(CC3)CC(=O)c3nc(C(C)(C)C)sc3C4)cc2c1 [Example 18] ?
# output 1

# input Similarly, CNc1ccc2c(C)cc(C(=O)N3CCC4(CC3)CC(=O)c3nc(C(C)C)sc3C4)cc2n1 [Example 8] ?
# output 1
